Tested on: A549
test: Antiproliferative activity against human A549 cells measured after 24 hrs by MTT assay
Format: functional, cell-based
assay.context: A549, 24 h
recorded.metric: IC50

Lookup: Please look up its IC50: "O=C1C(Nc2ccccc2N2CCNCC2)=CC2=NS(=O)(=O)c3cccc1c32"
Found: ≤ 4.66 µM

====

System: MDA-MB-231
test: Antiproliferative activity against human MDA-MB-231 cells assessed as inhibition of cell growth measured after 72 hrs by WST-8 method
Type: functional, cell-based
assay.context: MDA-MB-231, 72 h
recorded.metric: pIC50
By convention, pIC50 is the negative base-10 log of a molar concentration.

Lookup: Please look up its pIC50: "CC(=O)c1cc2c(o1)-c1ccccc1C(=O)C2=O"
Found: 5.82

Lookup: Please look up its pIC50: CC(O)c1cc2c(o1)C(=O)c1cccc3c1C2=NS3(=O)=O (stereo not given)
Found: 7.31

Lookup: Please look up its pIC50: CC(O)c1cc2c(o1)C(=O)c1ccc(S(N)(=O)=O)cc1C2=O (stereo not given)
Found: 6.51

Lookup: Please look up its pIC50: "CC(=O)c1cc2c(o1)C(=O)c1ccc(S(N)(=O)=O)cc1C2=O"
Found: 6.96

Lookup: Please look up its pIC50: "C[C@H](O)c1cc2c(o1)C(=O)c1cccc(O)c1C2=O"
Found: 6.46

Lookup: Please look up its pIC50: "CC(=O)c1cc2c(o1)C(=O)c1cccc3c1C2=NS3(=O)=O"
Found: 7.05

Lookup: Please look up its pIC50: "C[C@H](O)c1cc2c(o1)-c1cccc(O)c1C(=O)C2=O"
Found: 5.62

====

IC50: recorded values
Tested on: MDA-MB-231
test: Antiproliferative activity against human MDA-MB-231 cells assessed as inhibition of cell growth measured after 72 hrs by WST-8 method
Format: functional, cell-based
assay.context: MDA-MB-231, 72 h
Respond with the bare value in nM.

Solved cases (2 shown):
>>> print(df.to_string())
                                   molecule  measurement_units  obs_value
0  CC(O)c1cc2c(o1)C(=O)c1cccc(S(=O)(=O)N(C)C)c1C2=O (stereo not drawn)                 nM        770
1      CC1(C)CCC2=C(O1)c1cccc(O)c1C(=O)C2=O                 nM       1400

Lookup: Please look up its IC50: "CC(=O)c1cc2c(o1)-c1cccc(O)c1C(=O)C2=O"
Found: 1400
